# assayTarget: SpCyk3
# testSummary: SPOT peptide array binding signal intensity (averaged, normalized) (arbitrary units (background-subtracted, floor 0; scale differs between SH3 domains)); higher = stronger binding of the SH3 domain to the peptide
Give SPOT peptide array binding signal intensity for every item shown.
One number for each entry.

These solved cases illustrate the format of a correct answer.
Enquiry: If you can, please state the reported SPOT peptide array binding signal intensity value of "VTHRLRISIPGITGR" .
Return: 9

Enquiry: Recorded SPOT peptide array binding signal intensity of "SNRRPVPRRPSQPLN" , please.
Return: 6

Enquiry: Tell me the measured SPOT peptide array binding signal intensity of "VGFRLALKFPSRITG" , please.
Return: 75

Please look at the following binder next.
Enquiry: Given the entry "NAGIRPKFILALNDE" , report its measured SPOT peptide array binding signal intensity.
Return: 2
